Target: GST-HttExon1Q21 (recombinant huntingtin exon 1 protein with 21 polyQ repeats fused to an N-terminal GST tag) (;human, UniProt P08515 1-218 = GST; P42858 1-88)
Sequence (P08515 1-218, tags or fused parts left off): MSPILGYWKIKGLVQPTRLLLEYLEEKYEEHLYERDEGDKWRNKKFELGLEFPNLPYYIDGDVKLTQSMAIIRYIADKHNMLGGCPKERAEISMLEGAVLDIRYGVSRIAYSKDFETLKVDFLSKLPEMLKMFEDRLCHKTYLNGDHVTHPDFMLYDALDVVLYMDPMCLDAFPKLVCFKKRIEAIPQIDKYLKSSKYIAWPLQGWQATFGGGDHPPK
Assay: ELISA
attribute-measured: pEC50
The scale used: pEC50 is minus the common logarithm of the concentration in molar units.

pEC50 measured on NI-302.78H12 (antibody, V domains shown) VH: QVQLQESGPGLVKPSETLSLTCLVSSYSISNGYYWGWIRQPPGKGLEWIGSIYHNGNTYYNPSLKSRVIISVDTSKNQFSLKLRSVTAADTAVYYCAMPSATYYYGSGTQFHAFDVWGQGTTVTVSS VL: QSALTQPRSVSGSPGQSVTISCTGTSRDVGNYNYVSWYQQHPGEVPKLIIYDVSERPSGVPDRFSGSKSGNTASLTISGLQAEDEADYYCCSYAGSYTFEVFGGGTKLTVL = 9.30

Per the records, this binder ( NI-302.46C9 (antibody, V domains shown) VH: QVQLQESGPGLVKPSQTLSLTCTVSGASVSSGAYYWSWIRQPAGKRLEWIGRVYPTWSTNYNPSLESRVTISLDTSNNQFSLKLTSLTAADTAVYYCAREAPGDYDAAPLAYWGQGTLVTVSS VL: DIQMTQSPSSLSASVGDRVTITCRASQYISHYLNWYRQKPGKAPQLVIYAASSLQSEVPSRFSGSGSGPEFTLTISSLQPEDFATYYCQQSYTTPRTFGQGTKLEIK ) has pEC50 equal to 10.15

For this binder ( NI-302.52C9 (antibody, V domains shown) VH: EVQLVQSGGGLVQPGGSLRLSCAGSGFTVSDTYMSWVRQAPGKGLEWVSGIHAGGETYYADSVKGRFTISRDNSKNTLYLQMNRLTPEDTAVFYCARHYYGNDDDTDYWGQGTLVTVSS VL: DVVMTQSPLSLPVTPGEPASISCRSSQSLLHSNGYNYLDWYVQKPGQSPQLLIYLGSTRASGVPDRFSGSGSGTDFTLKISRVEAEDVGVYYCLQAQQIPWTFGQGTKVEIK ), measured pEC50 is 7.99
